Reference for the values: ChEMBL document CHEMBL1201862

Target: Orexin receptor type 2 (Homo sapiens, UniProt O43614)
Sequence (O43614 whole entry): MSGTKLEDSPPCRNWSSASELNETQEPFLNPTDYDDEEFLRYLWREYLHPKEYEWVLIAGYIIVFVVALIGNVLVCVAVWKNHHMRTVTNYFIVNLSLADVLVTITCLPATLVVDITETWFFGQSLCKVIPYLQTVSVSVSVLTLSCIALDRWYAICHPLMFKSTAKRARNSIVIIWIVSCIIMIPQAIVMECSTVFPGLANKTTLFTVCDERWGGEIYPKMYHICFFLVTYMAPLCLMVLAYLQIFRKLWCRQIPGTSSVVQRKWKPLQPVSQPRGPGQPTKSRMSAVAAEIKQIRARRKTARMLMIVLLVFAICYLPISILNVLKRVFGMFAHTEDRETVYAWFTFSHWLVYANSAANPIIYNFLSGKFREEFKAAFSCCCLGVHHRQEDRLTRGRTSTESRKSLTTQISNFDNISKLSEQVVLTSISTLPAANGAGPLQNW
Assay: Counterscreen assay for antagonists of the orexin 1 receptor (OX1R; HCRTR1): Fluorescence-based cell-based dose response assay for antagonists of the orexin 2 receptor (OX2R; HCRTR2), run by assay provider.
Format: functional
The source made the active and inactive calls.

| molecule | IC50 |
| --- | --- |
| COc1ccccc1C(=O)Nc1nc2cc3c(cc2s1)OCCO3 | > 88.8 µM (inactive) |
| CCOC(=O)c1c(C)nc2c3ccccc3ccn12 | > 88.8 µM (inactive) |
| COc1ccc(OCc2n(CC(=O)OC3CC(C)CCC3C(C)C)c3ccccc3[n+]2C)cc1.[Cl-] (stereo not given) | 8.9 µM (active) |
| Cc1cc(C(=O)NCc2cccc(Cl)c2)c2ccccc2n1 | > 88.8 µM (inactive) |
| Nc1nc(-c2sc3nc4c(cc3c2N)CCCC4)nc(N2CCOCC2)n1 | > 88.8 µM (inactive) |

---

Overview of recorded EC50 for various compounds
Target: Heat shock factor protein 1 (Mus musculus, UniProt P38532)
Sequence (P38532 whole entry): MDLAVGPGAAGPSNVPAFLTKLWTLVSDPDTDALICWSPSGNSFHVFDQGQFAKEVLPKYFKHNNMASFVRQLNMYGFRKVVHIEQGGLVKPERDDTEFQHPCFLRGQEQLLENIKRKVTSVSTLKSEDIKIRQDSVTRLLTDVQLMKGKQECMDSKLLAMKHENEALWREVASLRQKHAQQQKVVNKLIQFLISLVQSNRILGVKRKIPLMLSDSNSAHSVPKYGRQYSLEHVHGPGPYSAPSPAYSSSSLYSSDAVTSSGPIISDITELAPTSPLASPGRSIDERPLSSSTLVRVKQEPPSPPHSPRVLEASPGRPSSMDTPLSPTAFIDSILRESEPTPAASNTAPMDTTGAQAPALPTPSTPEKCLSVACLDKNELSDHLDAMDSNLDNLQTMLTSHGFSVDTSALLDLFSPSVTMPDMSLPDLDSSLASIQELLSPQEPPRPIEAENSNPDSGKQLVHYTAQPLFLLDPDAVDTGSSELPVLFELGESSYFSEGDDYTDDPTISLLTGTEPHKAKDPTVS
Assay: inhibition of MG132-induced HSE-luciferase signal, confirmation, cell-based, NIH3T3, luminescence, dose retest (AID 2382);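 further: NIH3T3 fibroblasts with HSF1-driven luciferase reporter stressed by proteasome inhibitor MG132; luminescence from HSF1-driven luciferase expression after 8 hours of MG132 stress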
Type: functional
Activity calls are given as the source filed them.
quantity: EC50

| compound | observed_result |
| --- | --- |
| Cn1c(SCC(=O)Nc2ncc(C(F)(F)F)cc2Cl)nnc1-c1ccc(Cl)cc1 | > 195 µM (not active) |
| CN(C)C=O.COc1ccc(/C=C/c2nc3ccccc3c(=O)n2-c2cccc(C(=O)O)c2)cc1 | 22.7 µM (active) |
| CC(C)CN(CC(C)C)C(S)=NC1CCCCC1 | 17 µM (active) |
| Cc1ccc(-c2nn(C)c(=O)c3ccccc23)cc1S(=O)(=O)NCCN(C)C | > 195 µM (not active) |
| O=C(N/N=C/c1cccc(C(F)(F)F)c1)c1ccc(O)cc1 | > 195 µM (not active) |
| C=CCN(CC(O)c1cccc([N+](=O)[O-])c1)C(C)CCc1ccccc1 (stereo not drawn) | > 195 µM (not active) |
| CCC1CCCCN1C(=O)c1cc2c(=O)n3cccc(C)c3nc2s1 (stereo not drawn) | > 195 µM (not active) |
| O=C(NC(=S)Nc1ccc2oc(=O)ccc2c1)c1cc2ccccc2o1 | > 195 µM (not active) |
| Cc1cc(NC(=O)COC(=O)[C@H](C)NC(=O)c2ccccc2)no1 | > 195 µM (not active) |
| O=C(C1CCCO1)N1CCC2(CC1)OCCO2 (stereo not drawn) | > 195 µM (not active) |
| Cc1ccc(N/N=C(\C=O)C(=O)c2ccc(Cl)cc2)cc1 | 4.78 µM (active) |
| O=C(Nc1ccc(-c2nc3cccnc3s2)cc1)C1CCCO1 (stereo not drawn) | 11.3 µM (active) |
| C=CCN1C(=O)NC(=O)/C(=C(/C)NC2CCN(Cc3ccccc3)CC2)C1=O | > 195 µM (not active) |

---

Tested on: BJ
Experiment: cytotoxicity toward BJ-TERT-LT-ST fibroblasts, dose response, cell-based, RAS-independent, luminescence (AID 1935);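 further: BJ fibroblasts immortalized with TERT plus LT and ST oncogenes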
Type: functional
Details: Homo sapiens
Active and inactive are the calls of the source.

| input_smiles | EC50 |
| --- | --- |
| c1ccc2c(NCCc3c[nH]c4ccccc34)c3ccccc3nc2c1 | 6.42 µM (inconclusive) |
| Cc1occc1C(=O)N/N=C/c1ccc(-c2ccccc2)cc1 | 10.3 µM (active) |
| CSc1ccc(COC(=O)c2cc([N+](=O)[O-])ccc2N2CCOCC2)cc1 | 0.385 µM (active) |
| COc1ccc(CN2C(=O)/C(=C/c3ccncc3)SC2=S)cc1 | > 75 µM (inconclusive) |
